# Test system: BT-549 breast
# Procedure text: NCI tumour cell line growth inhibition, 384-well format
TGI: recorded values
Express your answer in µM, writing the number without its unit.

> print(dat)
                           molecular.string  unit.tag  measurement
1  CCN1CCN(Cc2ccc(-c3cc4c(N[C@H](C)c5ccccc5)ncnc4[nH]3)cc2)CC1        µM         3.14

Kindly consider the entry below.
Task: Look up TGI: CN(C)CCOc1ccc(-c2nc(-c3ccc4c(c3)CC/C4=N\O)c(-c3ccncc3)[nH]2)cc1
Output: 3.39

====

TGI: recorded values
# Tested on: UO-31 renal
# Procedure text: NCI tumour cell line growth inhibition, 384-well format
Express your answer in µM, writing the number without its unit.

> print(dat)
                           molecular.string  unit.tag  measurement
1  C[C@@H]1COCCN1c1cc(C2([S@](C)(=N)=O)CC2)nc(-c2ccnc3[nH]ccc23)n1        µM         25.5
2  CC(C)[C@]12O[C@H]1[C@@H]1O[C@]13[C@]1(O[C@H]1C[C@H]1C4=C(CC[C@@]13C)C(=O)OC4)[C@@H]2O        µM       0.0513

Kindly consider the entry below.
Task: Test system UO-31 renal; read-out TGI; what value for CCN1CCN(Cc2ccc(-c3cc4c(N[C@H](C)c5ccccc5)ncnc4[nH]3)cc2)CC1 ?
Output: 11.9
